Attribution: patent US4746675A

# System: eye (cornea, iris, conjunctiva)
# protocol_notes: primary eye irritation (Draize) in rabbits
# Assay type: in vivo, white native male rabbits
# test_context: 2.4% soln; 72 hours; average of three rabbits
assay_endpoint: Primary irritation score, Conjunctiva

1) CCCCCCCCCCCCOS(=O)(=O)[O-].[Na+] [Sodium Laurylsulfate, sodium laurylsulfate, reference compound] | 2.7
2) CCCCCCCC(=O)OCC(COC(=O)[C@@H]1CCC(=O)N1)OC(=O)CCCCCCC (stereo partly drawn) | 0
3) CCCCCCCCC1(CCCCCCCC)OCC(COC(=O)C2CCC(=O)N2)O1 (stereo not drawn) | 0
4) CCCCCCCCCCCC(=O)OCC(O)COC(=O)[C@@H]1CCC(=O)N1 (stereo partly drawn) | 0
5) CCC=CCCCCCCCCOCC(O)COC(=O)[C@@H]1CCC(=O)N1 (stereo partly drawn) | 0
6) CCCCCCCC/C=C\CCCCCCCC(=O)OCC(O)COC(=O)[C@@H]1CCC(=O)N1 (stereo partly drawn) | 0

* * *

# Tested on: eye (cornea, iris, conjunctiva)
# protocol_notes: primary eye irritation (Draize) in rabbits
# Assay type: in vivo, white native male rabbits
# test_context: 2.4% soln; 3 hours; average of three rabbits
# Experimental: enhancers of this invention shown in Table 17 was applied dropwise to one eye of white native male rabbits (body weight 2.0 to 3.0 kg; 3 per group) which, it had been ascertained, were free from any trouble at the cornea, iris and conjunctiva. […] Thus, irritation of the absorption aid to the mucous membrane of the eyes were examined, and scores were calculated in accordance with the Draize's eye irritation evaluating method [Association of Foods, "Drugs and Cosmetics" (1957)]. […]
assay_endpoint: Primary irritation score, Conjunctiva

1) CCCCCCCCCCCCOS(=O)(=O)[O-].[Na+] [Sodium Laurylsulfate, sodium laurylsulfate, reference compound] | 12.7
2) CCCCCCCCC1(CCCCCCCC)OCC(COC(=O)C2CCC(=O)N2)O1 (stereo not drawn) | 2.0
3) CCCCCCCC/C=C\CCCCCCCC(=O)OCC(O)COC(=O)[C@@H]1CCC(=O)N1 (stereo partly drawn) | 2.0
4) CCC=CCCCCCCCCOCC(O)COC(=O)[C@@H]1CCC(=O)N1 (stereo partly drawn) | 1.3
5) CCCCCCCCCCCC(=O)OCC(O)COC(=O)[C@@H]1CCC(=O)N1 (stereo partly drawn) | 2.0
6) CCCCCCCC(=O)OCC(COC(=O)[C@@H]1CCC(=O)N1)OC(=O)CCCCCCC (stereo partly drawn) | 2.0

* * *

// reported Primary irritation score, Conjunctiva for each item listed
# Test system: eye (cornea, iris, conjunctiva)
# protocol_notes: primary eye irritation (Draize) in rabbits
# Type: in vivo, white native male rabbits
# test_context: 2.4% soln; 48 hours; average of three rabbits
assay_endpoint: Primary irritation score, Conjunctiva

1. CCC=CCCCCCCCCOCC(O)COC(=O)[C@@H]1CCC(=O)N1 (stereo partly drawn) [Compound (134)] | 0
2. CCCCCCCCCCCC(=O)OCC(O)COC(=O)[C@@H]1CCC(=O)N1 (stereo partly drawn) [Compound (172)] | 0
3. CCCCCCCCCCCCOS(=O)(=O)[O-].[Na+] [Sodium Laurylsulfate, sodium laurylsulfate, reference compound] | 4.0
4. CCCCCCCC(=O)OCC(COC(=O)[C@@H]1CCC(=O)N1)OC(=O)CCCCCCC (stereo partly drawn) [Compound (162)] | 0
5. CCCCCCCC/C=C\CCCCCCCC(=O)OCC(O)COC(=O)[C@@H]1CCC(=O)N1 (stereo partly drawn) [Compound (168)] | 0
6. CCCCCCCCC1(CCCCCCCC)OCC(COC(=O)C2CCC(=O)N2)O1 (stereo not drawn) [Compound (214)] | 0

* * *

# Test system: carrageenan edema
# protocol_notes: carrageenan edema inhibiting effect of betamethasone valerate ointments
# Type: in vivo, rat
# test_context: 3 hrs; Table 5, betamethasone valerate ointment with penetration enhancer
// reported Percentage inhibition vs. control for each item listed
assay_endpoint: Percentage inhibition vs. control (%)

1. CCCCCCCC(=O)OCC(COC(=O)[C@@H]1CCC(=O)N1)OC(=O)CCCCCCC (some centres unmarked) [Compound (162)] | 16.1
2. CCCCCCCCCCCCCCCC1OCC(COC(=O)C2CCC(=O)N2)O1 (centres unmarked) [Compound (220)] | 16.6
3. CCC=CC(=O)OCC(O)COC(=O)[C@@H]1CCC(=O)N1 (some centres unmarked) [Compound (184)] | 19.0
4. CCCCCCCCCCCCOCC(O)COC(=O)[C@@H]1CCC(=O)N1 (some centres unmarked) [Compound (108)] | 20.1
5. CCCCCCCC(=O)OCC(O)COC(=O)[C@@H]1CCC(=O)N1 (some centres unmarked) [Compound (160)] | 17.7

* * *

# protocol_notes: diffusion of drug through egg shell membrane in diffusion cell
# Assay type: in vitro ADME
assay_endpoint: Relative amount of the drug diffused

1) COC1=CC(=O)C[C@@H](C)[C@]12Oc1c(Cl)c(OC)cc(OC)c1C2=O | 209
2) O=C(O)c1cc(=O)c2c(OCC(O)COc3cccc4oc(C(=O)O)cc(=O)c34)cccc2o1 [Sodium cromoglicate] | 159
3) C=C1/C(=C\C=C2/CCC[C@]3(C)[C@@H]([C@H](C)CCCC(C)(C)O)CC[C@@H]23)C[C@@H](O)C[C@@H]1O [1,25-Dihydroxyvitamin D3] | 123
4) C[C@]12CC[C@@H]3c4ccc(O)cc4CC[C@H]3[C@@H]1CC[C@@H]2O | 181

* * *

# Tested on: eye (cornea, iris, conjunctiva)
# protocol_notes: primary eye irritation (Draize) in rabbits
# Assay type: in vivo, white native male rabbits
# test_context: 2.4% soln; 72 hours; average of three rabbits
// reported Primary irritation score, Iris for each item listed
assay_endpoint: Primary irritation score, Iris

1. CCCCCCCCCCCC(=O)OCC(O)COC(=O)[C@@H]1CCC(=O)N1 (stereo partly drawn) | 0
2. CCCCCCCCCCCCOS(=O)(=O)[O-].[Na+] [Sodium Laurylsulfate, sodium laurylsulfate, reference compound] | 0
3. CCCCCCCC/C=C\CCCCCCCC(=O)OCC(O)COC(=O)[C@@H]1CCC(=O)N1 (stereo partly drawn) | 0
4. CCCCCCCCC1(CCCCCCCC)OCC(COC(=O)C2CCC(=O)N2)O1 (stereo not drawn) | 0
5. CCCCCCCC(=O)OCC(COC(=O)[C@@H]1CCC(=O)N1)OC(=O)CCCCCCC (stereo partly drawn) | 0
6. CCC=CCCCCCCCCOCC(O)COC(=O)[C@@H]1CCC(=O)N1 (stereo partly drawn) | 0

* * *

// reported Primary irritation score, Total for each item listed
# Test system: eye (cornea, iris, conjunctiva)
# protocol_notes: primary eye irritation (Draize) in rabbits
# Format: in vivo, white native male rabbits
# test_context: 2.4% soln; 72 hours; average of three rabbits
assay_endpoint: Primary irritation score, Total

1. CCC=CCCCCCCCCOCC(O)COC(=O)[C@@H]1CCC(=O)N1 (stereo partly drawn) | 0
2. CCCCCCCCCCCC(=O)OCC(O)COC(=O)[C@@H]1CCC(=O)N1 (stereo partly drawn) | 0
3. CCCCCCCCCCCCOS(=O)(=O)[O-].[Na+] [Sodium Laurylsulfate, sodium laurylsulfate, reference compound] | 2.7
4. CCCCCCCC/C=C\CCCCCCCC(=O)OCC(O)COC(=O)[C@@H]1CCC(=O)N1 (stereo partly drawn) | 0
5. CCCCCCCC(=O)OCC(COC(=O)[C@@H]1CCC(=O)N1)OC(=O)CCCCCCC (stereo partly drawn) | 0
6. CCCCCCCCC1(CCCCCCCC)OCC(COC(=O)C2CCC(=O)N2)O1 (stereo not drawn) | 0

* * *

# Test system: eye (cornea, iris, conjunctiva)
# protocol_notes: primary eye irritation (Draize) in rabbits
# Assay type: in vivo, white native male rabbits
# test_context: 2.4% soln; 24 hours; average of three rabbits
assay_endpoint: Primary irritation score, Conjunctiva

1. CCCCCCCC(=O)OCC(COC(=O)[C@@H]1CCC(=O)N1)OC(=O)CCCCCCC (stereo partly drawn) | 0
2. CCCCCCCCCCCCOS(=O)(=O)[O-].[Na+] [Sodium Laurylsulfate, sodium laurylsulfate, reference compound] | 8.0
3. CCCCCCCCC1(CCCCCCCC)OCC(COC(=O)C2CCC(=O)N2)O1 (stereo not drawn) | 0
4. CCCCCCCCCCCC(=O)OCC(O)COC(=O)[C@@H]1CCC(=O)N1 (stereo partly drawn) | 0
5. CCCCCCCC/C=C\CCCCCCCC(=O)OCC(O)COC(=O)[C@@H]1CCC(=O)N1 (stereo partly drawn) | 0
6. CCC=CCCCCCCCCOCC(O)COC(=O)[C@@H]1CCC(=O)N1 (stereo partly drawn) | 0

* * *

# Tested on: eye (cornea, iris, conjunctiva)
# protocol_notes: primary eye irritation (Draize) in rabbits
# Assay type: in vivo, white native male rabbits
# test_context: 2.4% soln; 48 hours; average of three rabbits
assay_endpoint: Primary irritation score, Total

1) CCCCCCCC/C=C\CCCCCCCC(=O)OCC(O)COC(=O)[C@@H]1CCC(=O)N1 (stereo partly drawn) [Compound (168)] | 0
2) CCCCCCCCC1(CCCCCCCC)OCC(COC(=O)C2CCC(=O)N2)O1 (stereo not drawn) [Compound (214)] | 0
3) CCCCCCCC(=O)OCC(COC(=O)[C@@H]1CCC(=O)N1)OC(=O)CCCCCCC (stereo partly drawn) [Compound (162)] | 0
4) CCCCCCCCCCCCOS(=O)(=O)[O-].[Na+] [Sodium Laurylsulfate, sodium laurylsulfate, reference compound] | 4.0
5) CCC=CCCCCCCCCOCC(O)COC(=O)[C@@H]1CCC(=O)N1 (stereo partly drawn) [Compound (134)] | 0
6) CCCCCCCCCCCC(=O)OCC(O)COC(=O)[C@@H]1CCC(=O)N1 (stereo partly drawn) [Compound (172)] | 0
